# reported Plant response rating, Mustard, Wild; entries follow
- Tested on: mustard, wild (wild mustard, Sinapis arvensis)
- Measurement Notes: Test D pre-/postemergence: mustard, wild
- Assay type: in vivo
- Experimental Conditions: Preemergence; 125 g ai/ha; scale 0 to 100
Respond with the number and no other words.

{"Molecule": "Cc1nn(-c2ccc(F)cc2)nc1Cc1ccnc(C(F)(F)F)c1 [Compound 16]", "Plant response rating, Mustard, Wild": 100}
{"Molecule": "CCOc1nn(-c2ccc(F)cc2)nc1Cc1ccnc(C(F)F)c1 [Compound 195]", "Plant response rating, Mustard, Wild": 100}

Query (molecule): Cc1nn(-c2ccc(F)cc2)nc1Oc1ccnc(C(F)(F)F)c1 [Compound 129] ; field requested: Plant response rating, Mustard, Wild 80

Query (molecule): Cc1nn(-c2ccc(F)c(C(F)(F)F)c2)nc1Oc1ccnc(C(F)(F)F)c1 [Compound 147] ; field requested: Plant response rating, Mustard, Wild 95

====

# reported pest or weed control at 125 g/ha; entries follow
- Test system: foxtail, giant (giant foxtail, Setaria faberii)
- Measurement Notes: Test A pre-/postemergence: foxtail, giant
- Type: in vivo
- Experimental Conditions: Setaria faberi, post-emergence, 240 h; Postemergence, 125 g ai/ha; 0 to 100 scale, 0 is no effect, 100 is complete control; read-out: Foxtail, Giant plant response rating
Express it in %; write the number only.

{"Compound": "COc1nn(-c2ccc(C(F)(F)F)cc2)nc1Cn1ccc(C(F)(F)F)n1 [Compound 17]", "Observed Measurement": 60}
{"Compound": "Cc1nn(-c2ccc(C(F)(F)F)cc2)nc1Cc1ccnc(C(F)(F)F)c1 [Compound 47]", "Observed Measurement": 80}
{"Compound": "Cc1nn(-c2ccc(F)cc2)nc1Oc1ccnc(C(F)(F)F)c1 [Compound 129]", "Observed Measurement": 90}

Proceed to the following item.
Query (compound): CCc1nn(-c2ccc(C(F)(F)F)cc2)nc1Oc1cccc(OC(F)(F)F)c1 [Compound 125] ; field requested: pest or weed control at 125 g/ha 50

====

- System: wheat (Triticum aestivum)
- Measurement Notes: Test A pre-/postemergence: wheat
- Format: in vivo
- Experimental Conditions: Preemergence, 500 g ai/ha; 0 to 100 scale (0 no effect, 100 complete control)
// classify: if (Plant response rating, Wheat < 30) y else n

For orientation, consider the following solved cases.
{"Compound": "Fc1ccc(-n2nc(Cc3ccnc(C(F)(F)F)c3)c(OCC(F)(F)F)n2)cc1 [Compound 142]", "Target Or System": "wheat (Triticum aestivum)", "Qualitative Label": "n"}
{"Compound": "CCOc1nn(-c2ccc(Br)cc2)nc1Cc1ccnc(C(F)(F)F)c1 [Compound 189]", "Target Or System": "wheat (Triticum aestivum)", "Qualitative Label": "n"}

For this compound, is Plant response rating, Wheat lower than 30? CC(C)c1nn(-c2ccc(F)cc2)nc1Cc1ccnc(C(F)(F)F)c1 [Compound 151] y

For this compound, is Plant response rating, Wheat lower than 30? Cc1nn(-c2ccc(F)c(F)c2)nc1Oc1ccnc(C(F)(F)F)c1 [Compound 145] n

For this compound, is Plant response rating, Wheat lower than 30? Cc1nn(-c2ccc(F)cc2)nc1Cn1cnc(C(F)(F)F)c1 [Compound 112] y

For this compound, is Plant response rating, Wheat lower than 30? Cc1nn(-c2ccc(F)c(C(F)(F)F)c2)nc1Oc1ccnc(C(F)(F)F)c1 [Compound 147] n
